inhibition reference
TEST TARGET: P2X purinoceptor 7 (Homo sapiens) (UniProt Q99572)
Sequence (Q99572 whole entry): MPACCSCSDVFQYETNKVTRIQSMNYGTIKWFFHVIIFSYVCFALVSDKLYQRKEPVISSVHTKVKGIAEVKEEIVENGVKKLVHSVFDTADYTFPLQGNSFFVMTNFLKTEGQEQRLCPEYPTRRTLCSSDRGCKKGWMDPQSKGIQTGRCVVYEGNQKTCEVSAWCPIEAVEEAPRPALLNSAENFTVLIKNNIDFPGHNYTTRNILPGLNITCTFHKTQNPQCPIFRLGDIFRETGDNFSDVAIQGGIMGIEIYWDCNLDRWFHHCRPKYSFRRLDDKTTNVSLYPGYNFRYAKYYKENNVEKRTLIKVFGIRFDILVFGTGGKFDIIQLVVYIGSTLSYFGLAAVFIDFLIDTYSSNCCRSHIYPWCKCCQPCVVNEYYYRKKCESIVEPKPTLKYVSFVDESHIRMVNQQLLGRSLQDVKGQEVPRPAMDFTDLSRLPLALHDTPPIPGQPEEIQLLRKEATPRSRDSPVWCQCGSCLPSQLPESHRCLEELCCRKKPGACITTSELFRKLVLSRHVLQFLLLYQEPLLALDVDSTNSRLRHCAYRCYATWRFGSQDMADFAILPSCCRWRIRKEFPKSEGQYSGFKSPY
EXPERIMENT DESCRIPTION: Antagonist activity at P2X7 receptor in human LPS-stimulated monocytes assessed as inhibition of ATP-induced IL1-beta release at 5 uM by ELISA
Assay type: functional, cell-based
ENDPOINT NAME: inhibition (%)

>>> quantitative_result("O=C(NCC1CCCC1)c1cc(-n2ncc(=O)[nH]c2=O)ccc1Cl")
0
>>> quantitative_result("O=C(NCCc1ccncc1)c1cc(-n2ncc(=O)[nH]c2=O)ccc1Cl")
22
>>> quantitative_result("O=C(NCCCc1ccccc1)c1cc(-n2ncc(=O)[nH]c2=O)ccc1Cl")
0
>>> quantitative_result("CCCCC(CC)CNC(=O)c1cccc(-n2ncc(=O)[nH]c2=O)c1 (stereo unspecified)")
0
>>> quantitative_result("CCCCC(CC)COC(=O)c1cc(-n2ncc(=O)[nH]c2=O)ccc1Cl (stereo unspecified)")
19
>>> quantitative_result("O=C(NCCc1ccccn1)c1cc(-n2ncc(=O)[nH]c2=O)ccc1Cl")
15
>>> quantitative_result("O=C(NCc1ccccc1)c1cc(-n2ncc(=O)[nH]c2=O)ccc1Cl")
15
>>> quantitative_result("O=C(NCCc1cccnc1)c1cc(-n2ncc(=O)[nH]c2=O)ccc1Cl")
22
>>> quantitative_result("CCCCC(CC)CN(C)C(=O)c1cc(-n2ncc(=O)[nH]c2=O)ccc1Cl (stereo unspecified)")
0
>>> quantitative_result("CCCCNC(=O)c1cc(-n2ncc(=O)[nH]c2=O)ccc1Cl")
0
>>> quantitative_result("CCOCCCNC(=O)c1cc(-n2ncc(=O)[nH]c2=O)ccc1Cl")
2
